molecular target: T1, monkey GPC3-His protein (monkey); experiment: ELISA, monkey GPC3-His coated;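 further: Plate-coated antigen at 1 µg/mL, antibody binding 2 h at 37 °C, detected with HRP-labeled secondary antibody and TMB, absorbance at 450 nm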
T1 construct: Bought recombinant protein; also called monkey GPC3 protein
resultType: OD450 at 1 nM (OD450)
# number only, unit OD450 dropped from output

Before answering, review these 2 worked examples.
- binder: "F1.120.16 (antibody, human IgG1, kappa, V domains shown, Human-murine chimeric antibody) VH: EFQLQQSGPELVKPGASVKISCKASGYSFTDYNMNWVKQSNGKSLEWIGLIHPKFSVTSYNRKFKGKATLTVDQSSSTAYMQLNSLTSEDSAVYYCARWAGDYFDYWGQGTTLTVSS VL: DIVLTQSPATLSVTPGDSVSLSCRASQSISNNLHWYQQKSHESPRLLIKYASQSISGIPSRFSGSGSGTDFTLTINSVETEDFGMYFCQQSNSWPQTFGGGTKLEIKR"
  unit: "OD450"
  OD450 at 1 nM: 1.91
- binder: "F1.57.21 (antibody, human IgG1, kappa, V domains shown, Human-murine chimeric antibody) VH: QVQLQQSGAELARPGASVKLSCKASGYTFTSYGISWVKQITGQGLEWIGEIYPRSESTYYNEKFKGKATLTADKSSSTAYMELRSLTSEDSAVYFCARDYGNIYSFAYWGQGTLVTVSA VL: DIQMTQSPASLSASVGETVTITCRTSENIYSYLAWYQQKQGKSPQLLVYNAKTLAEGVPSRFSGSGSGTQFSLKINSLQPEDFGSYYCQHHYGTPLTFGAGTKLELKR"
  unit: "OD450"
  OD450 at 1 nM: 1.68

--- query ---
Ask | Find the measured OD450 at 1 nM of F1.115.8 (antibody, human IgG1, kappa, V domains shown, Human-murine chimeric antibody) VH: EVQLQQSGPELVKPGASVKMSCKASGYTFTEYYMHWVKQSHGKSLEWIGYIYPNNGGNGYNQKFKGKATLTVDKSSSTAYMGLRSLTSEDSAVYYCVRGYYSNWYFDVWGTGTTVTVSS VL: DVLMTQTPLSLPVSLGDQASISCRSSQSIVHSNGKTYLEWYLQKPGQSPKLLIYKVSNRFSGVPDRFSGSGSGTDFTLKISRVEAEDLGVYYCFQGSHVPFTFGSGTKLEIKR and report it.
Reply | 2.14

Cited source for all entries: patent US20260116991A1
